- TESTED_TARGET: adenine binding rat receptor (Rattus norvegicus)
- Construct: expressed in transfected cells; host or cells: CHO cells, transient, lipofectamine PLUS
- Sequence (Q7TN49 whole entry): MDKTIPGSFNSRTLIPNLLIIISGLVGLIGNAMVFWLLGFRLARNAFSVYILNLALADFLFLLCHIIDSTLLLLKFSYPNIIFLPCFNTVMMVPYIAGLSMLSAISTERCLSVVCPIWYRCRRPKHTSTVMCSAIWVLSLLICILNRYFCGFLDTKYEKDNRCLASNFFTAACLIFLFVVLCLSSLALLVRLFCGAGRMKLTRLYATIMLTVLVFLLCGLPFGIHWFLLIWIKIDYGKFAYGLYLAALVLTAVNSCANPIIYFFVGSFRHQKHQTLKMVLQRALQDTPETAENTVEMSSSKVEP
- ASSAY_NOTES: [3H]adenine competition binding on CHO membranes transiently transfected
- CONDITIONS: transfected cells, 15 nM [3H]adenine, mean of n experiments
- Method: The membranes were prepared as total particulate fractions. The cell lines were cultured to […] on 145 mm petri dishes and treated with 5 mM sodium butyrate, 24 hours before collection. The culturing medium was removed and the cells were washed twice with ice cold phosphate buffered saline (PBS without Ca^2+ and Mg^2+), scraped from the plates in 50 mM Tris-HCl buffer, pH 7.4, and collected by centrifugation (10 minutes at 16,000 RPM at 4° C.). […]
QUANTITY_NAME: Ki (µM)

COc1cccc2c1C(=O)c1c(O)c3c(c(O)c1C2=O)C[C@@](O)(C(C)=O)C[C@@H]3O[C@H]1C[C@H](N)[C@H](O)[C@H](C)O1: 31.3
COc1cccc2c1C(=O)c1c(O)c3c(c(O)c1C2=O)C[C@@](O)(C(=O)CO)C[C@@H]3O[C@H]1C[C@H](N)[C@H](O)[C@H](C)O1: 27.9
Nc1ncnc2c1ncn2[C@@H]1O[C@H](COP(=O)(O)O)[C@@H](O)[C@H]1O: 24.5
Nc1ncnc2c1ncn2[C@@H]1O[C@H](COP(=O)(O)OP(=O)(O)OP(=O)(O)O)[C@@H](O)[C@H]1O: 52.8

I. c1ccc(CNc2ncnc3nc[nH]c23)cc1
II. Cn1cnc2ncnc-2c1N
III. Nc1ncnc2nc[nH]c12
Please order the records by their reported Ki, lowest number first. Reply: labels, ordered per the request.
III, II, I

The measurements presented in this section are drawn from patent US20030157516A1.
